# system under test: Androgen receptor (Rattus norvegicus); also: in other assays of this panel Not Active means under 50% inhibition at 10 µM
# Sequence (P15207 whole entry S389L): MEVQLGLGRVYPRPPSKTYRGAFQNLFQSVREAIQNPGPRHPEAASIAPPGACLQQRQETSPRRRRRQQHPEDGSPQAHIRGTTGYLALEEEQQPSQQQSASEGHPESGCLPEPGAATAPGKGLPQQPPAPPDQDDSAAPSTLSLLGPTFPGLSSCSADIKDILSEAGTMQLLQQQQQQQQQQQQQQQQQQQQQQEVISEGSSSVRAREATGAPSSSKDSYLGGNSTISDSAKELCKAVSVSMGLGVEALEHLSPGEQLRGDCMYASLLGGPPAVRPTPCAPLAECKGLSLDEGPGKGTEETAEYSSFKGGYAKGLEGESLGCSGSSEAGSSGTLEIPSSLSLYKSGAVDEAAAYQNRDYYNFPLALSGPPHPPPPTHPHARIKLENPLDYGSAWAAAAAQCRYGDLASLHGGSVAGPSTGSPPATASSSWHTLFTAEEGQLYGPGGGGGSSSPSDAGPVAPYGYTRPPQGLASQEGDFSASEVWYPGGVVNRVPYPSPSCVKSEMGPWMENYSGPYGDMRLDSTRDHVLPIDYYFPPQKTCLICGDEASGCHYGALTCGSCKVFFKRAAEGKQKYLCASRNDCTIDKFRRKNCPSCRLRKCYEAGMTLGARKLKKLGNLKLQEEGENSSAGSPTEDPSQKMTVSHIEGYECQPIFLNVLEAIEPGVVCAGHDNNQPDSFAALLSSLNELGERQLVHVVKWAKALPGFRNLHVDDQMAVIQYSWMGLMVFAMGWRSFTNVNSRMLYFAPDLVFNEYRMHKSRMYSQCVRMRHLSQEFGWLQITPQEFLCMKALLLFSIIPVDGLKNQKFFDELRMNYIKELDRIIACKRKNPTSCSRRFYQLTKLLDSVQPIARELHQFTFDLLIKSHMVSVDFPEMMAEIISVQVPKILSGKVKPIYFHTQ

>  <substance>
COPPER(II) OXIDE

>  <system under test>
Androgen receptor (Rattus norvegicus); also: in other assays of this panel Not Active means under 50% inhibition at 10 µM

>  <IC50>
Not Active

$$$$
>  <substance>
CARBOXYMETHYLCELLULOSE

>  <system under test>
Androgen receptor (Rattus norvegicus); also: in other assays of this panel Not Active means under 50% inhibition at 10 µM

>  <IC50>
Not Active

$$$$
>  <substance>
CHROMIC CHLORIDE

>  <system under test>
Androgen receptor (Rattus norvegicus); also: in other assays of this panel Not Active means under 50% inhibition at 10 µM

>  <IC50>
Not Active

$$$$
>  <substance>
POVIDONE

>  <system under test>
Androgen receptor (Rattus norvegicus); also: in other assays of this panel Not Active means under 50% inhibition at 10 µM

>  <IC50>
Not Active

$$$$
>  <substance>
LEAD(IV) ACETATE

>  <system under test>
Androgen receptor (Rattus norvegicus); also: in other assays of this panel Not Active means under 50% inhibition at 10 µM

>  <IC50>
Not Active

$$$$
